- Tested on: Tyk2-pSTAT4 (IL-12 induced pSTAT4)
- METHOD_SUMMARY: IL-12 induced pSTAT4 in human PBMC
- Type: cell-based
- RECORDED_CONDITIONS: 0.5 h, 1.7 ng/mL IL-12 for 30 minutes, legend words it as IC50
PROPERTY_MEASURED: EC50

Inquiry: Given the entry N#Cc1cccc(F)c1-c1cc(-n2ccc(N3CCC(N4CCOCC4)CC3)n2)c2c(n1)CNC2=O [I-59] , report its measured EC50.
Reply text: 100 to 2000 nM

Measured values drawn from patent US11434240B2 for this set.
